System: whole blood from subjects with T1D and Celiac disease
assay_protocol: Whole blood cytokine release assay, IP-10 (MAGPIX), Example 1
Format: cell-based, human
assay_context: Subject 6; individual 17mer 20 μg/mL; blood 6 days after commencing oral gluten challenge
Where IP-10 fold-change (GAD65 peptides) equals or exceeds 3 fold, the correct label is T; where it does not, the label is F.

Past entries and their recorded results:
60 (KYKIWMHVDAAWGGGLL) [compound 60] :: F
61 (FDRSTKVIDFHYPNELL) [compound 61] :: F
59 (RPTLAFLQDVMNILLQY) [compound 59] :: F
64 (MNILLEYVVKSFDRSTK) [compound 64] :: F

Exercise: Does the substance 63 (AFLQDVMNILLEYVVKS) [compound 63] have recorded IP-10 fold-change (GAD65 peptides) that is 3 fold or more?
Solution: F

Exercise: Does IP-10 fold-change (GAD65 peptides) meet or surpass 3 fold for 9 (NMFTYEIAPVFVLLEYV) [compound 9] ?
Solution: T

Exercise: Record 11 (FNQLSTGLDMVGLAADW) [compound 11] ; criterion: IP-10 fold-change (GAD65 peptides) no lower than 3 fold. Met?
Solution: T

Exercise: Item 62 (KTGIVSSKIIKLFFRLQ) [compound 62] with IP-10 fold-change (GAD65 peptides) of 3 fold or above?
Solution: T

Exercise: Say whether 10 (NVCFWYIPPSLRTLEDN) [compound 10] shows IP-10 fold-change (GAD65 peptides) of 3 fold or more.
Solution: T
